- Tested on: HeLa
- protocol text: Cytotoxicity against human HeLa cells assessed as reduction in cell viability after 24 hrs by MTT assay
- Type: functional, cell-based
parameter measured: pIC50
Please note pIC50 is a logarithmic value: minus log10 of concentration in mol/L. Answer with that number alone.

Lookup: # query: pIC50 | item OC1(C(F)(F)F)CS/C(=N\c2ccc(Cl)c(C(F)(F)F)c2)N1CCN1CCOCC1 (stereo not given) | system: HeLa
Found: 5.20

Lookup: Please give the result for O=c1cc(N2CCOCC2)oc2c(-c3ccccc3)cccc12 too.
Found: 4.69

Lookup: Another molecule to check: OC1(C(F)(F)F)CS/C(=N\c2ccccc2)N1Cc1cccs1 (stereo not given)
Found: 4.61

Lookup: Ok, now COc1ccc(N2/C(=N/c3ccc(F)cc3)SCC2(O)C(F)(F)F)cc1 (stereo not given)
Found: 5.16

Lookup: Also check OC1(C(F)(F)F)CS/C(=N\c2cccc(C(F)(F)F)c2)N1c1cccc(C(F)(F)F)c1 (stereo not given)
Found: 5.45

Lookup: Entry to check: OC1(C(F)(F)F)CS/C(=N\c2ccc(F)cc2)N1c1ccc(F)cc1 (stereo not given)
Found: 4.51

Lookup: Subsequent entry: OC1(C(F)(F)F)CS/C(=N\c2ccccc2)N1CCc1c[nH]c2ccccc12 (stereo not given)
Found: 4.56

Lookup: Now give it for OC1(C(F)(F)F)CS/C(=N\c2ccccc2)N1CCN1CCOCC1 (stereo not given) too.
Found: 4.58

Lookup: // same read-out, input: OC1(C(F)(F)F)CS/C(=N\c2ccccc2)N1CCc1ccccn1 (stereo not given)
Found: 4.55

Lookup: // next record OC1(C(F)(F)F)CS/C(=N\c2ccc(Cl)c(C(F)(F)F)c2)N1Cc1cccs1 (stereo not given)
Found: 5.19
